- assay system: T1, human GIP receptor (human, UniProt P48546 22-466)
- T1 construct: whole, on cells; also called hGIPR; hGIP-R
- T1 sequence (looked up): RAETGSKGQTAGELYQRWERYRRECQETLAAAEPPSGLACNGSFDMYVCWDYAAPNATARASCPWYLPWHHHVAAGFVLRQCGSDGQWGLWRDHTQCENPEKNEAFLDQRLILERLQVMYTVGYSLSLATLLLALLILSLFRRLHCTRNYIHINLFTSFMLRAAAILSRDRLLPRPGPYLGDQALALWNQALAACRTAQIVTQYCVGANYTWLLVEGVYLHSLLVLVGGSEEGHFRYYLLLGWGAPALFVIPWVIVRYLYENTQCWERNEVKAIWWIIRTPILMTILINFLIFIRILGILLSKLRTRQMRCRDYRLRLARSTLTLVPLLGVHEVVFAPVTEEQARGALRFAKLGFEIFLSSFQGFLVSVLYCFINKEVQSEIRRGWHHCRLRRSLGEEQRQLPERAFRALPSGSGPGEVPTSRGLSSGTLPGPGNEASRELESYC
- test details: [125I]-GIP competition SPA, hGIPR membranes
pKi: −log10 of the molar value.
Outcome label depends on pKi relative to 10: at/above gives 1, below gives -1.

# binder, group
records = [
    ("XXEGTFTSDYSIXLDKKAQXAFIXYLIEGGPSSGAPPPS (D-Tyr1; Aib2; αMeL13; K17((2-[2-(2-Amino-ethoxy)-ethoxy]-acetyl)2-(γ-Glu)-CO-(CH2)18-CO2H); Aib20; D-Glu24; C-terminal NH2) [Example 356]", -1),
    ("YXEGTFTSDYSIXLDKKAQXEFIEYLIAGGPSSGAPPPS (Aib2; αMeL13; K17((2-[2-(2-Amino-ethoxy)-ethoxy]-acetyl)-(γ-Glu)-CO-(CH2)18-CO2H); Aib20; C-terminal NH2) [Example 339]", 1),
    ("YXEGTXTSDXSIXLDXKAQXEFIXYLIEGGPSSGAPPPS (Aib2; αMeF(2F)6; 4Pal10; αMeL13; Dab16; K17((2-[2-(2-Amino-ethoxy)-ethoxy]-acetyl)2-(γ-Glu)-CO-(CH2)16-CO2H); Aib20; D-Glu24; C-terminal NH2) [Example 233]", 1),
]

Record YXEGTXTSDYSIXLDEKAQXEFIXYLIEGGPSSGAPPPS (Aib2; αMeF(2F)6; αMeL13; K17((2-[2-(2-Amino-ethoxy)-ethoxy]-acetyl)2-CO-(CH2)16-CO2H); Aib20; D-Glu24; C-terminal NH2) [Example 214] ; criterion: pKi no lower than 10. Met?
1

Would you mind doing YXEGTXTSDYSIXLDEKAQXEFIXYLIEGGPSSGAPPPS (Aib2; αMeF(2F)6; Aib13; K17((2-[2-(2-Amino-ethoxy)-ethoxy]-acetyl)2-(γ-Glu)-CO-(CH2)18-CO2H); Aib20; D-Glu24; C-terminal NH2) [Example 224] as well?
1

Now try YXEGTXTSDYSILLDKKAQXAFIEYLIAGGPSSG (Aib2; αMeF(2F)6; K17((2-[2-(2-Amino-ethoxy)-ethoxy]-acetyl)2-(γ-Glu)-CO-(CH2)16-CO2H); Aib20; C-terminal NH2) [Example 313] .
1

Queued: YXEGTXTSDYSILLDKKAQXAFIEYLIEGGPSSGAPPPS (Aib2; αMeF(2F)6; K17((2-[2-(2-Amino-ethoxy)-ethoxy]-acetyl)2-(γ-Glu)-CO-(CH2)18-CO2H); Aib20; C-terminal NH2) [Example 325]
1

All values here come from patent US20200024322A1.
